Origin of measurements: ChEMBL document CHEMBL1201862

Test system: RXF 393
assay.protocol: NCI tumour cell line growth inhibition, 48 h
The source made the active and inactive calls. Rule as the data show it: active = GI50 up to about 1.1 µM and inactive = higher. *1 amine or outer side, *2 acyl side, *3 side chain or, on linkers, in order; H or OH if unused. Where a SMILES comes first, the peptide text is derived from it. [ ]: non-standard residue; d: D form. The star is where a group is joined. ξ: configuration not given here. X26 = O=C([C@H]1CCC[C@H]1N[*:1])[*:2]; ξW = NC(Cc1c[nH]c2ccccc12)C(=O)O; ξF = NC(Cc1ccccc1)C(=O)O; Boc = CC(C)(C)OC(=O)*; ξK = NCCCCC(N)C(=O)O; ξT = CC(O)C(N)C(=O)O; tBu = CC(C)(C)*
measured.property: GI50

CCc1c(O)cc(=O)oc1-c1ccc(OC)c(OC)c1	> 100 µM (inactive)
CCOC(=O)C1=C(O)C2C3CC4C2C(O)=C(C(=O)OCC)C2C1C3C42 (stereo not given)	> 100 µM (inactive)
CC(OC(C)(C)C)C1NC(=O)C(CCCCNC(=O)OC(C)(C)C)NC(=O)C(Cc2c[nH]c3ccccc23)NC(=O)C(Cc2ccccc2)NC(=O)[C@H]2CCC[C@H]2NC(=O)C(Cc2ccccc2)NC1=O (stereo not given in full) (cyclo([X26][ξF][ξW][ξK](Boc)[ξT](tBu)[ξF]))	> 100 µM (inactive)
CC(C)c1c(O)ccc2c1CCC1C(C)(C)CCCC21C (stereo not given)	15.1 µM (inactive)
O=C1C=C(Nc2ccc(Cl)cc2C(=O)c2ccccc2)c2ccccc2C1=O	> 100 µM (inactive)
O=C(Cc1ccccc1)c1ccc2[nH]c(=O)oc2c1	39.6 µM (inactive)
COc1ccccc1NS(=O)(=O)c1cc(C(C)(C)C)ccc1OCCOc1ccc(C(C)(C)C)cc1S(=O)(=O)Nc1ccccc1OC	> 100 µM (inactive)
CNC(=S)N(C)C(=S)Nn1c(=O)c(C)nn(C)c1=S	> 100 µM (inactive)
Nc1nc2[nH]c(=O)cnc2c(=O)[nH]1	> 125 µM (inactive)
CCC[N+](C)(C)CCCNC(=O)c1c(O)c2ccccc2[nH]c1=O	> 100 µM (inactive)
CC1=CC(=O)C(=C(C)C)CC1	26.1 µM (inactive)
O=C(C1OC1c1ccc([N+](=O)[O-])cc1)C12CC3CC(CC(C3)C1)C2 (stereo not given)	22.5 µM (inactive)
CCCCCCCCCCCCCC(=S)N/C=C/OC	26.9 µM (inactive)
CCC/C=C/c1cc2c(cc1O)CC[C@@H]1[C@@H]2CC[C@]2(C)[C@@H](O)CC[C@@H]12	16.3 µM (inactive)
COc1cccc(C2=NC(C(C)C)CO2)c1 (stereo not given)	> 100 µM (inactive)
O=C1/C(=C/c2ccccc2)CN(C(=O)OCc2ccccc2)C/C1=C\c1ccccc1	13.4 µM (inactive)
O=C(/C=C(\Nc1ccccc1O)c1ccccc1)C(=O)NC12CC3CC(CC(C3)C1)C2	> 10 µM (inactive)
COC[C@@H]1[C@H]2OC(C)(C)O[C@H]2C(=O)N1C(=O)c1ccc(OC)cc1	> 100 µM (inactive)
Cc1ccc(-c2c(C#N)c(O)n(NS(=O)(=O)c3ccccc3)c(=O)c2C#N)cc1	> 100 µM (inactive)
CCCCCCCCCCCOC(=S)NC(C)C	19.8 µM (inactive)

----------
Tested on: UACC-257
assay.protocol: NCI tumour cell line growth inhibition, 48 h
The source made the active and inactive calls. No stated cut-off is given here; in the data, active = GI50 up to about 1.1 µM and inactive = higher.
Quick reference for GI50 among some compounds
measured.property: GI50

Cc1cc(O)cc(O)c1/N=N/c1ccc([N+](=O)[O-])cc1	25.1 µM (inactive)
CC(C)c1c(O)ccc2c1CCC1C(C)(C)CCCC21C (stereo unspecified)	17.7 µM (inactive)
c1ccc2c(c1)/C(=N\NC1=NCCN1)c1nc3ccccc3nc1-2	5.31 µM (inactive)
CCOC(=O)/N=C(\N)SCc1ccccc1	> 100 µM (inactive)
Cc1cccc(NC(=O)C(=O)Cc2nc3ccccc3nc2O)c1C	> 100 µM (inactive)
COC1OC(C)C(OC(=O)C(C)(C)C)C(OS(=O)(=O)c2ccc(C)cc2)C1OS(=O)(=O)c1ccc(C)cc1 (stereo unspecified)	> 100 µM (inactive)
CC1=CC(=O)C(=C(C)C)CC1	> 100 µM (inactive)
O=c1ccc2ccccc2c2ccccc12	4.82 µM (inactive)
O=c1[nH]c(-c2ccc([N+](=O)[O-])cc2)nc2ccc(Cl)cc12	> 100 µM (inactive)
C=CC[C@H]1O[Si](C(C)(C)C)(C(C)(C)C)[C@H](C)[C@H]1C	> 100 µM (inactive)
C[Si](C)(C)c1ccc(CC2(Cc3ccc([Si](C)(C)C)cc3)CCNC2)cc1	2.44 µM (inactive)

----------
Quick reference for GI50 among some compounds
Test system: HT-29
assay.protocol: NCI tumour cell line growth inhibition, 48 h
Activity calls are given as the source filed them. Cut-off read from the data, not from the text of the source: active = GI50 up to about 1.1 µM and inactive = higher.
measured.property: GI50

Cc1c(N)nc(C2CC(=O)N2CC(N)C(N)=O)nc1C(=O)NC(C(=O)NC(C)C(O)C(C)C(=O)NC(C(=O)NCCc1nc(-c2nc(C(=O)NCCNCC(C)O)cs2)cs1)C(C)O)C(OC1OC(CO)C(O)C(O)C1OC1OC(CO)C(O)C(OC(N)=O)C1O)c1c[nH]cn1 (centres undefined)	21.3 µM (inactive)
O=NN1C(c2ccccc2)C2CCCC(C2=O)C1c1ccccc1 (centres undefined)	18.1 µM (inactive)
Cc1nc(C)c(C(=O)NNC(=O)c2ccccc2)cc1C(=O)NNC(=O)c1ccccc1	> 100 µM (inactive)
CCOC(=O)/N=C(\N)SCc1ccccc1	> 100 µM (inactive)

----------
Tested on: SK-MEL-5
assay.protocol: NCI tumour cell line growth inhibition, 48 h
The source made the active and inactive calls. No stated cut-off is given here; in the data, active = GI50 up to about 1.1 µM and inactive = higher.
Outcomes: active, inactive

C#CCNC(CS)C(=O)O (stereo not drawn)	inactive
O=S(=O)(c1ccccc1)C1CN2OC1(S(=O)(=O)c1ccccc1)CC2c1ccc(Br)cc1 (stereo not drawn)	inactive
O=C(/C=C/c1ccccc1)c1ccccc1	inactive
COc1ccc(OC)c(C2CCc3nc4nc(N)nc(N)c4cc3C2)c1 (stereo not drawn)	inactive
C[Si](C)(C)c1ccc(CC2(Cc3ccc([Si](C)(C)C)cc3)CCNC2)cc1	inactive
CC(C)/C=N\n1c(N)c(C#N)c(C#N)c1C(C)C	inactive
COc1cc(C2c3cc4c(cc3[C@@H](NCCN(C)C)C3COC(=O)[C@H]23)OCO4)cc(OC)c1O (stereo partly drawn)	active
Cc1ccc(NC(=O)CC(=O)n2nc(C)c(/N=N/c3cccc(C)c3)c2C)cc1	inactive
COC(=O)/C(C)=C/[N+](=O)[O-]	inactive
CN(C)C(=O)OC(Cn1cncn1)c1ccc(Cl)cc1Cl (stereo not drawn)	inactive
NCCC1([N+](=O)[O-])C=CN=CC1 (stereo not drawn)	inactive
O=c1n(C2CCCCC2)c(=C(Cl)Cl)c(=C(Cl)Cl)n1C1CCCCC1	inactive
Oc1ccc2ccccc2c1Cc1c(O)ccc2ccccc12	inactive
COc1ccc2c(c1)C=C([N+](=O)[O-])C(C1OC(C)(C)OC1C1COC(C)(C)O1)O2 (stereo not drawn)	inactive
COC1OC(C)C(OC(=O)C(C)(C)C)C(OS(=O)(=O)c2ccc(C)cc2)C1OS(=O)(=O)c1ccc(C)cc1 (stereo not drawn)	inactive
O=C(N/N=C/c1cc(Cl)cc(Cl)c1O)c1ccncc1	inactive
Oc1ccc(N=C2CCC(=C(c3ccccc3)c3ccc(Nc4ccc(O)cc4)cc3)CC2)cc1	inactive
COc1ccc(N/N=C/C2=CC(C)(C)C(C#N)(C#N)C(O)=C2C#N)cc1	inactive
Cc1cc(O)cc(O)c1/N=N/c1ccc([N+](=O)[O-])cc1	inactive
O=c1[nH]c(-c2ccc([N+](=O)[O-])cc2)nc2ccc(Cl)cc12	inactive
CCOC(=O)N/N=C(\Cc1ccccc1)OCC	inactive
O=C(c1ccccc1)c1c(-c2ccccc2)n(-c2ccccc2)[nH]c(=O)c1=O	inactive
CC1CC(C)[C@H](O)C([C@H](O)CC2CC(=O)N(C)C(=O)C2)C1 (stereo partly drawn)	inactive
COc1cccc(/C=C2/Sc3scc(-c4ccccc4)[n+]3C2=O)c1O	inactive
Oc1c(O)c(Cc2ccccc2)c(Cc2ccccc2)c(Cc2ccccc2)c1Cc1ccccc1	inactive
O=C(C1OC1c1ccc([N+](=O)[O-])cc1)C12CC3CC(CC(C3)C1)C2 (stereo not drawn)	inactive
O=C1C(Cl)C(c2ccc(O)cc2)N1n1cnc2ccccc2c1=O (stereo not drawn)	inactive
CN(C)CCN(C)CC1COC(C)(C)O1 (stereo not drawn)	inactive
CC1CCC2(CC1)NN=c1s/c(=C\c3ccc(O)cc3)c(=O)n1N2 (stereo not drawn)	inactive
COC(=O)C1=C(\O)C[C@@]2(C)CC[C@@H](C(=O)OC)C2C/C=C\1C(=O)OC (stereo partly drawn)	inactive
O=C(Nc1ccccc1-c1n[nH]c(S)nc1=O)C(F)(F)F	inactive
C[N+](C)(N)Cc1csc(-c2ccc(Cl)cc2)n1	inactive
O=C1/C(=C/c2ccccc2)CN(C(=O)OCc2ccccc2)C/C1=C\c1ccccc1	inactive
CC1(c2nc3cc(Cl)c(Cl)cc3[nH]2)CCC(CO)C(C)(C)O1 (stereo not drawn)	inactive
CCN1C(=O)N2C(OC)c3ccccc3C(Br)C2(OC)C1=O (stereo not drawn)	inactive
C[C@@H](Br)[C@@H]1CC[C@H]2c3[nH]c4ccccc4c3CCN2C1	inactive
COc1ccc(C2CC(C)=Nc3c(O)nc(S)nc3N2)cc1 (stereo not drawn)	inactive
CC(C)Oc1c(-c2c(OC(C)C)c(=O)c2=O)c(=O)c1=O	inactive
COc1ccc(/C(CC2OC(=O)c3ccccc32)=N\NC(=O)C[N+](C)(C)C)cc1 (stereo not drawn)	inactive
CC(=O)OC1COC(N2C(=O)C(=O)c3c(C)cc(Cl)nc32)C(OC(C)=O)C1OC(C)=O (stereo not drawn)	inactive
COC(=O)N/N=C(/c1nc2ccc([N+](=O)[O-])cc2nc1O)C(O)c1ccc(OC)c(OC)c1 (stereo not drawn)	inactive
COC(=O)C1=NN2c3ccccc3CN([C@@H](C)c3ccccc3)C(=O)[C@H]2[C@@H]1C	inactive
CN1CCOC(c2ccccc2)O1 (stereo not drawn)	inactive
